- system: factor B (Homo sapiens)
- protocolDetails: factor B inhibition assay of Biological Example 1
- Assay type: biochemical
- Set-up: CVF-Bb complex prepared from purified cobra venom factor (1 μM), recombinant human complement factor B; made in house; host or cells: drosophila cells (factor B); E. coli (factor D used to form the complex)
- conditionInfo: IC50 (nM), assay of Biological Example 1 (Table 1)
- Sequence (P00751 260-764 limits assumed): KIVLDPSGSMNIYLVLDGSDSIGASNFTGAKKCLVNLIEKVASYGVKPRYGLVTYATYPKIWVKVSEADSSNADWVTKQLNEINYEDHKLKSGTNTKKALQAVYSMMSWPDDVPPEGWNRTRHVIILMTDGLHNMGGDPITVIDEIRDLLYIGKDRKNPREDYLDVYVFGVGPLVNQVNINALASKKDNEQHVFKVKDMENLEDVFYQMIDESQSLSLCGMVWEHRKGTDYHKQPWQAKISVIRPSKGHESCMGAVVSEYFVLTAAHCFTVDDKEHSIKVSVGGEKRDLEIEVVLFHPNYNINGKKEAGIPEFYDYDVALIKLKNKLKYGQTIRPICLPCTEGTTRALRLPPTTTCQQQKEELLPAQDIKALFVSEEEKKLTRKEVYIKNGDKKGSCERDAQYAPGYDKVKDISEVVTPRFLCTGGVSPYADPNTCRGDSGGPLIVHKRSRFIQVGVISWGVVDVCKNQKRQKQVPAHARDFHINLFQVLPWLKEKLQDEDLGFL
- Sequence (Q91132 23-649 partner limits assumed): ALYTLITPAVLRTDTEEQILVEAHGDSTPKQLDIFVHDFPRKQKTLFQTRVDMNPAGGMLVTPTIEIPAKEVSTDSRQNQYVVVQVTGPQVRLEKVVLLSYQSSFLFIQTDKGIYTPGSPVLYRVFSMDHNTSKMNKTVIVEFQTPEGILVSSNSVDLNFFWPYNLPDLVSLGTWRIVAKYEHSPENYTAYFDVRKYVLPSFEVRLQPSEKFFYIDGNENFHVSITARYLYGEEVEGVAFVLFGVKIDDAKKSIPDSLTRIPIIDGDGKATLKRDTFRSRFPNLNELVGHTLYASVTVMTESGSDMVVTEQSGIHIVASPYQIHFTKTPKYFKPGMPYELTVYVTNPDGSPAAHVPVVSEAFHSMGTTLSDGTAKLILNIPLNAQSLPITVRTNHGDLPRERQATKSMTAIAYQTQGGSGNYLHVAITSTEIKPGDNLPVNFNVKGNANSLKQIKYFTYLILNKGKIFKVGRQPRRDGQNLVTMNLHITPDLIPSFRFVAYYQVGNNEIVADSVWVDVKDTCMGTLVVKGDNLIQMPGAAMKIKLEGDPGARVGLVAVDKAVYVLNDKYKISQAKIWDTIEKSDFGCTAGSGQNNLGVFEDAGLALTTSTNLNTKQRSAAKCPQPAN
- Sequence (Q91132 733-984 partner limits assumed): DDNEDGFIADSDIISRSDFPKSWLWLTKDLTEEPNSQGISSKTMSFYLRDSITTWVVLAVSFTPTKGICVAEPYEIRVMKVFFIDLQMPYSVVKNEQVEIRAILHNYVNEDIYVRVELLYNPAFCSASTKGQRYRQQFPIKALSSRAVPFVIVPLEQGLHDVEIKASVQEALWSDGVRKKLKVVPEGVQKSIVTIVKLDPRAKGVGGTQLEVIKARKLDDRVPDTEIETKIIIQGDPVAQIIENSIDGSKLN
- Sequence (Q91132 1264-1642 partner limits assumed): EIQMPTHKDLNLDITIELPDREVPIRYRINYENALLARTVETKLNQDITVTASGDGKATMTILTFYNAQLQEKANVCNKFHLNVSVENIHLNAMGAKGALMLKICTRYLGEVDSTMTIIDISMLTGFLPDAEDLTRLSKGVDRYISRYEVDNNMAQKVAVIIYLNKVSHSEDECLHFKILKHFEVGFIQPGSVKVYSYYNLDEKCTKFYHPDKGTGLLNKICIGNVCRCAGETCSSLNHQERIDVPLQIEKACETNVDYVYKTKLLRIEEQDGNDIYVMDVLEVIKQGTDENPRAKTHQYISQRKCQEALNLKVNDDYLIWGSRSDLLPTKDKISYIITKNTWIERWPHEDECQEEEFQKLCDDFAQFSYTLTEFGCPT
testReadout: IC50

1. COC(c1nc2cc(C#N)ccc2[nH]1)(c1c(S(C)(=O)=O)cc(C)c2[nH]ccc12)C(F)(F)F (single isomer, unassigned; (-)) [15-D b) (−)] : 680 nM
2. CCc1cc(C)c2[nH]ccc2c1C(N)(c1nc2cc(C#N)ccc2[nH]1)C(F)(F)F (single isomer, unassigned; (+)) [107-C b) (+)] : 400 nM
3. COc1cc(C)c2c(c1C(C)(OC)c1nc3cc(C#N)ccc3[nH]1)CCN2 (single isomer, unassigned; (-)) [124 b) (−)] : 11 nM

---

# maps each entry to its IC50
- system: factor B (Homo sapiens)
- protocolDetails: factor B inhibition assay of Biological Example 1
- Type: biochemical
- Parameters: CVF-Bb complex prepared from purified cobra venom factor (1 μM), recombinant human complement factor B; made in house; host or cells: drosophila cells (factor B); E. coli (factor D used to form the complex)
- conditionInfo: IC50 (nM), assay of Biological Example 1 (Table 1)
testReadout: IC50 (nM)

1) COC(c1nc2cc(C#N)ccc2[nH]1)c1c(C)cc(C)c2[nH]ccc12 (racemic) : 200
2) Cc1cc(C)c2[nH]ccc2c1C(N)c1nc2ccc(C#N)cc2[nH]1 (single isomer, unassigned; (-)) [95-B b) (−)] : 480
3) Cc1cc(C)c2[nH]ccc2c1C(O)c1nc2c(C)c(C#N)ccc2[nH]1 (single isomer, unassigned; (-)) [67-G b) (−)] : 570
4) Cc1cc(CO)c(C(O)(c2nc3cc(C#N)ccc3[nH]2)C(F)(F)F)c2cc[nH]c12 (racemic) : 1640
5) COC(C)(c1nc2cc(C#N)ccc2[nH]1)c1c(C)cc(C)c2[nH]ccc12 (single isomer, unassigned; (+)) [84-B b) (+)] : 710
6) COc1cc(C)c2c(c1C(C)(OC)c1nc3cc(C#N)ccc3[nH]1)CCN2 (single isomer, unassigned; (+)) [124 b) (+)] : 490
7) Cc1cc(CC(C)C)c(C(O)c2nc3cc(C#N)ccc3[nH]2)c2cc[nH]c12 (single isomer, unassigned; (-)) [67-C b) (−)] : 6750
8) Cc1cc(CC(C)C)c(C(C)(O)c2nc3cc(C#N)ccc3[nH]2)c2cc[nH]c12 (single isomer, unassigned; (-)) [79-D b) (−)] : 310
9) Cc1cc(C)c2[nH]ccc2c1C(O)c1nc2cc(C#N)ccc2[nH]1 (single isomer, unassigned; (+)) [64-C b) (+)] : 340
10) COc1cc(C)c2[nH]cc(Cl)c2c1C(O)c1nc2cc(C#N)ccc2[nH]1 (single isomer, unassigned; (-)) [28-C b) (−)] : 140
11) Cc1cc(Br)c(C(C)(O)c2nc3cc(C#N)ccc3[nH]2)c2cc[nH]c12 (single isomer, unassigned) [79-F b) (tr = 3.8 min)] : 270
12) [2H]C([2H])([2H])Oc1cc(Cl)c2[nH]ccc2c1Cc1nc2cc(C#N)ccc2[nH]1 : 1140
13) CCOC(c1nc2cc(C#N)ccc2[nH]1)c1c(C)cc(C)c2[nH]ccc12 (racemic) : 1270

---

Reported pIC50 by item:
- system: factor B (Homo sapiens, UniProt P00751)
- protocolDetails: assay of Biological Example 2.7
- Format: binding
- Design: made in house; host or cells: drosophila cells
- conditionInfo: assay of Biological Example 2.7 (Table 2)
- Sequence (P00751 26-764): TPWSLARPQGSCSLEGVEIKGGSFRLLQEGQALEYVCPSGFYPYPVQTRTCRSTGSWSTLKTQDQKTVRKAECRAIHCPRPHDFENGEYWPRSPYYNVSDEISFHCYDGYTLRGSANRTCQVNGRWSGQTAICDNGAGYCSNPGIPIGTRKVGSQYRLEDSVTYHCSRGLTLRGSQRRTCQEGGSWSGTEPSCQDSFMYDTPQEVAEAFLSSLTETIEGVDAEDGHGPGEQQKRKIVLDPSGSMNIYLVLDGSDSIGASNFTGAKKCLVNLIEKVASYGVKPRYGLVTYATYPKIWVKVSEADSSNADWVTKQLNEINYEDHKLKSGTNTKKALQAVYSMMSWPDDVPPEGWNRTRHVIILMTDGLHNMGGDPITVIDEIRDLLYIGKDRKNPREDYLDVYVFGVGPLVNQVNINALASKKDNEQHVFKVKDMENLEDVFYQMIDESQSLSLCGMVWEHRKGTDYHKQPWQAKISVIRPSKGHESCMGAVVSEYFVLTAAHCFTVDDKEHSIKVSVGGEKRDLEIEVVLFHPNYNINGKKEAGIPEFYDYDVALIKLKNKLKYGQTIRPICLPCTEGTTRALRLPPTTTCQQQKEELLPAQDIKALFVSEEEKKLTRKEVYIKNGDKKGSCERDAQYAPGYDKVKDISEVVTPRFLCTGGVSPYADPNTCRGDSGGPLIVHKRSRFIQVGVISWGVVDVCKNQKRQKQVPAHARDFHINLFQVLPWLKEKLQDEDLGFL
pIC50: −log10 of the molar value.
testReadout: pIC50

1. COC(C)(c1nc2cc(C#N)ccc2o1)c1c(C2CC2)cc(C)c2[nH]ccc12 (single isomer, unassigned; (+)) [137-L b) (+)] : 6.14
2. COc1cc(C)c2[nH]ccc2c1C(N)(c1nc2cc(C#N)ccc2o1)C(F)(F)F (single isomer, unassigned) [137-B b) (tr = 4.6 min)] : 5.49
3. COc1cc(C)c2[nH]ccc2c1C(O)c1nc2cc(C#N)ccc2s1 (stereo not shown) : 7.21
4. CCc1cc(C)c2[nH]ccc2c1C(C)(N)c1nc2cc(C#N)ccc2o1 (single isomer, unassigned) [137-F b) (tr = 3.3 min)] : 6.77

---

Reported IC50 values follow for various molecules
- system: factor B (Homo sapiens)
- protocolDetails: factor B inhibition assay of Biological Example 1
- Assay type: biochemical
- Set-up: CVF-Bb complex prepared from purified cobra venom factor (1 μM), recombinant human complement factor B; made in house; host or cells: drosophila cells (factor B); E. coli (factor D used to form the complex)
- conditionInfo: IC50 (nM), assay of Biological Example 1 (Table 1)
testReadout: IC50 (nM)

1. Cc1cc(S(C)(=O)=O)c(C(C)(N)c2nc3cc(C#N)ccc3[nH]2)c2cc[nH]c12 (single isomer, unassigned; (+)) [13-E b) (+)] : 250
2. COc1cc(C)c2[nH]ccc2c1C(C)(OC)c1nc2cc(C#N)ccc2[nH]1 (single isomer, unassigned; (+)) [27-B b) (+)] : 60
3. Cc1cc(C)c2[nH]cc(-c3cnn(C)c3)c2c1C(O)c1nc2cc(C#N)ccc2[nH]1 (single isomer, unassigned) [119 b) (tr = 2.35 min)] : 12600
4. Cc1cc(C)c2[nH]cc(C)c2c1C(O)c1nc2cc(C#N)ccc2[nH]1 (racemic) : 2320
5. CCc1cc(C)c2[nH]cc3c2c1C(O)(c1nc2cc(C#N)ccc2[nH]1)CC3 (single isomer, unassigned) [94 b) (tr = 4.5 min)] : 400
6. Cc1cc(C)c2[nH]ccc2c1Cc1nc2cc(C#N)c(Cl)cc2[nH]1 : 72600
7. COc1cc(C)c2[nH]ccc2c1Cc1nc2ccc(C#N)cc2o1 : 4370

---

Listed here: items and their measured IC50.
- system: factor B (Homo sapiens, UniProt P00751)
- protocolDetails: factor B inhibition assay of Biological Example 1
- Format: biochemical
- Design: CVF-Bb complex prepared from purified cobra venom factor (1 μM), recombinant human complement factor B; made in house; host or cells: drosophila cells (factor B); E. coli (factor D used to form the complex)
- conditionInfo: IC50 (nM), assay of Biological Example 1 (Table 1)
testReadout: IC50 (nM)

1) COc1cc(C)c2[nH]ccc2c1C(N)c1nc2cc(C#N)ccc2[nH]1 (single isomer, unassigned) [39-C b) (tr = 30.6 min)] : 190
2) Cc1cc(CC(C)C)c(C(C)(O)c2nc3cc(C#N)ccc3[nH]2)c2cc[nH]c12 (single isomer, unassigned; (+)) [79-D b) (+)] : 2240
3) COc1cc(C)c2[nH]ccc2c1C(O)c1nc2cc(C#N)ccc2[nH]1 (single isomer, unassigned; (-)) [24-B b) (−)] : 90
4) [2H]C([2H])([2H])Oc1cc(C)c2[nH]ccc2c1Cc1nc2cc(C#N)ccc2[nH]1 : 80

---

- system: UniProtKB P00751
- protocolDetails: factor B inhibition assay of Biological Example 1
- Type: biochemical
- Design: CVF-Bb complex prepared from purified cobra venom factor (1 μM), recombinant human complement factor B; made in house; host or cells: drosophila cells (factor B); E. coli (factor D used to form the complex)
- conditionInfo: IC50 (nM), assay of Biological Example 1 (Table 1)
testReadout: IC50 (nM)

1. Cc1cc(C)c2[nH]ccc2c1C(CO)c1nc2cc(C#N)ccc2[nH]1 (racemic) [Example 108-E] : 80
2. COc1cc(C)c2[nH]ccc2c1Cc1nc2cc(C#N)ccc2[nH]1 [Example 20-C] : 60
3. CNC(c1nc2cc(C#N)ccc2[nH]1)c1c(OC(F)F)cc(C)c2[nH]ccc12 (racemic) [Example 4] : 570
4. Cc1cc(C(C)C)c(C(C)(O)c2nc3cc(C#N)ccc3[nH]2)c2cc[nH]c12 (single isomer, unassigned; (+)) [79-B b) (+)] : 1070
5. COc1cc(C)c2[nH]ccc2c1C(OCC(=O)O)(c1nc2cc(C#N)ccc2[nH]1)C(F)(F)F (single isomer, unassigned; (-)) [35-C (−)] : 40
6. COc1cc(C)c2[nH]ccc2c1C(C)(N)c1nc2cc(C#N)ccc2o1 (single isomer, unassigned; (-)) [131-B b) (−)] : 52
7. Cc1cc(C)c2[nH]ccc2c1C(C)(N)c1nc2cc(C#N)ccc2[nH]1 (racemic) [101-E b) (+)] : 80

---

- system: factor B (Homo sapiens, UniProt P00751)
- protocolDetails: factor B inhibition assay of Biological Example 1
- Assay type: biochemical
- Parameters: CVF-Bb complex prepared from purified cobra venom factor (1 μM), recombinant human complement factor B; made in house; host or cells: drosophila cells (factor B); E. coli (factor D used to form the complex)
- conditionInfo: IC50 (nM), assay of Biological Example 1 (Table 1)
Label scheme, based on IC50: lo = under 400 nM, mid = from 400 nM up to 4000 nM, hi = 4000 nM and over

1) Cc1cc(C)c2[nH]cc(-c3cccnc3)c2c1C(O)c1nc2cc(C#N)ccc2[nH]1 (single isomer, unassigned) [120 b) (tr = 2.25 min)] : lo
2) Cc1cc(C(C)C)c(C(N)c2nc3cc(C#N)ccc3[nH]2)c2cc[nH]c12 (single isomer, unassigned) [97 b) (tr = 19.4 min)] : lo
3) Cc1cc(C)c2[nH]ccc2c1C(OCC(=O)O)c1nc2cc(C#N)ccc2[nH]1 (racemic) [Example 69] : mid
4) Cc1cc(C)c2[nH]ccc2c1C(O)(c1nc2cc(C#N)ccc2[nH]1)C(F)(F)F (single isomer, unassigned; (-)) [80-D b) (−)] : lo
5) COc1cc(C)c2[nH]ccc2c1C(O)(c1nc2cc(C#N)ccc2[nH]1)C(F)(F)F (single isomer, unassigned; (+)) [33-B b) (+)] : mid
6) Cc1cc(C)c2[nH]ccc2c1C(N)c1nc2ccc(C#N)cc2[nH]1 (single isomer, unassigned; (+)) [95-B b) (+)] : mid
7) CCc1cc(C)c2[nH]ccc2c1C(OC)(c1nc2cc(C#N)ccc2[nH]1)C(F)(F)F (single isomer, unassigned; (+)) [84-D b) (+)] : mid
8) COC(C)(c1nc2cc(C#N)ccc2[nH]1)c1c(OC(F)F)cc(C)c2[nH]ccc12 (single isomer, unassigned; (+)) [8-B b) (+)] : lo
9) CCOc1cc(C)c2[nH]ccc2c1C(O)(c1nc2cc(C#N)ccc2[nH]1)C(F)(F)F (single isomer, unassigned) [33-C b) (tr = 5.1 min)] : hi
10) COc1cc(C)c2[nH]ccc2c1C(OCC(=O)O)(c1nc2cc(C#N)ccc2o1)C(F)(F)F (racemic) [Example 129-B] : hi
11) Cc1cc(C)c2[nH]cc(-c3ccccc3)c2c1C(O)c1nc2cc(C#N)ccc2[nH]1 (single isomer, unassigned) [118-C b) (tr = 7.9 min)] : mid
12) CC(=O)NCc1cc(C)c2[nH]ccc2c1Cc1nc2cc(C#N)ccc2[nH]1 [Example 61] : hi
13) COC(c1nc2cc(C#N)ccc2[nH]1)(c1c(S(C)(=O)=O)cc(C)c2[nH]ccc12)C(F)(F)F (single isomer, unassigned; (+)) [15-D b) (+)] : hi
